Target: NHE1 (Homo sapiens)
Sequence (P19634 whole entry, species assumed): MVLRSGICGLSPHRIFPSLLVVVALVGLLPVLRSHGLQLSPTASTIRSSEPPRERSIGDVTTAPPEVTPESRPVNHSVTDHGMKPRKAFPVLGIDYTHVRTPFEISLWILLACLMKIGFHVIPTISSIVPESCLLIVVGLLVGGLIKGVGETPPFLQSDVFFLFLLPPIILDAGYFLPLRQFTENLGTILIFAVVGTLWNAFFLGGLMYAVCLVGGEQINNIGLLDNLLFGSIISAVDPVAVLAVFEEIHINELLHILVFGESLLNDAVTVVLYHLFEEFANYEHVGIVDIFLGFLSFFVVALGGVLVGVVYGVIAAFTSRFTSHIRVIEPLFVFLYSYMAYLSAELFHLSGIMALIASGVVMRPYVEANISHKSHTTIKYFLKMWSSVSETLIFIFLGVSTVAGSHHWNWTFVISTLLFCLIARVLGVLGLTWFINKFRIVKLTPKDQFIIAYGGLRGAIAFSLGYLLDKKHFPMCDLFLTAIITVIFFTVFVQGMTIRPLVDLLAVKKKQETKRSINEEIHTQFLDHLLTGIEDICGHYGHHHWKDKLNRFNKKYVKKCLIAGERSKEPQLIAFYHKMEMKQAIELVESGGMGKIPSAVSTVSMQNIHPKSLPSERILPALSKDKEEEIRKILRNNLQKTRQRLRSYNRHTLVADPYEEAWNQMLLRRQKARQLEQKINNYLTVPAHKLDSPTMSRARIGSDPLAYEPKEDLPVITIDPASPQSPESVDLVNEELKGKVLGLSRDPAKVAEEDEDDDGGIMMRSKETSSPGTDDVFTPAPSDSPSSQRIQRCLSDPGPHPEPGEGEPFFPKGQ
Assay: NHE inhibition FLIPR test (intracellular pH recovery, BCECF)
Conditions: transfected LAP-1 cell line expressing NHE1 subtype, pHi recovery after acidification
Procedure: The NHE inhibitory activities (IC50 values) of the compounds according to the invention were determined by a FLIPR test. The test is performed in the FLIPR (Fluorescent Imaging Plate Reader) equipped with clear-bottomed and black-walled 96-well microtitration plates. The growth medium for the transfected cells (Iscove+10% foetal calf serum) also comprises G418 as selection antibiotic to ensure the presence of transfected sequences. […]
pIC50: −log10 of the molar value. Counter-ions that a name gives are not always drawn.
Classify as follows. Reported pIC50 greater than or equal to 8: true (1). Reported pIC50 below: false (0).

Query block: Check the entry Cc1cc(-n2cc(C(=O)NC(=N)N)c3cccnc32)c2ccccc2n1 [Example 8, hydrochloride] : does pIC50 equal or exceed 8?
Result block: false (0)

Query block: Okay, and N=C(N)NC(=O)c1cn(-c2ccnc3ccccc23)c2ncccc12 [Example 1] ?
Result block: true (1)

Query block: Then Cl.N=C(N)NC(=O)c1cn(-c2ccccn2)c2ncccc12 [Example 5, hydrochloride] ?
Result block: false (0)

Query block: Same read-out for CN(C)c1cccc(-n2cc(C(=O)NC(=N)N)c3cccnc32)c1 [Example 7] ?
Result block: true (1)

Query block: // query: N=C(N)NC(=O)c1cn(-c2ccc3ccccc3n2)c2ncccc12 [Example 4]
Result block: false (0)

Query block: Moving on to Cn1ccc2c(-n3cc(C(=O)NC(=N)N)c4cccnc43)ncnc21 [Example 9]
Result block: false (0)

Query block: Queued: CS(=O)(=O)c1ccc(-n2cc(C(=O)NC(=N)N)c3cccnc32)cc1 [Example 6, hydrochloride]
Result block: false (0)

Query block: Consider next the compound N=C(N)NC(=O)c1cn(-c2cc(O)nc3ccccc23)c2ncccc12 [Example 10] in the same way.
Result block: false (0)

----------
Answer each item with its documented melting point.
Please give a number only; it is taken to be in °C.

Query block: I am curious: what melting point value has been reported for N=C(N)NC(=O)c1cn(-c2ccncc2)c2ncccc12 [Example 2] ?
Result block: 210

Query block: Request: N=C(N)NC(=O)c1cn(-c2ccnc3ccccc23)c2ncccc12 [Example 1]
Result block: 164

----------
Where a name gives a salt, the structure may show the parent alone.
What melting point was measured for each of the following?

Query block: Report melting point for `Cl.N=C(N)NC(=O)c1cn(-c2ccccn2)c2ncccc12` please.
Result block: 205 to 207 °C

Query block: Same again, this time with `Cn1ccc2c(-n3cc(C(=O)NC(=N)N)c4cccnc43)ncnc21`
Result block: > 260 °C

Query block: Thanks! And CS(=O)(=O)c1ccc(-n2cc(C(=O)NC(=N)N)c3cccnc32)cc1 (as salt: hydrochloride) ?
Result block: 266 to 270 °C

Where do these numbers come from? They come from patent US7230007B2.
